Can you tell me IC50 for the items I'm about to list?
biological target: recombinant SARS-CoV-2 M^pro (Severe acute respiratory syndrome coronavirus 2 (2019-nCoV) (SARS-CoV-2), UniProt P0DTD1); assay: Inhibition of SARS-CoV-2 M^pro enzyme activity (fluorescent substrate assay); type: biochemical; conditions: inhibition of SARS-CoV-2 M^pro enzyme activity; values in nM; read-out: IC50
Number in nM, nothing else.

Identify IC50 associated with the compound COC[C@@H](NC(=O)CC1CCC(F)(F)CC1)C(=O)N[C@H](Cc1ccccc1)C(=O)C(=O)NCc1cscn1 11.5

Note down IC50 recorded for O=C(NCc1ccccn1)C(=O)[C@@H](Cc1ccccc1)NC(=O)C1(NC(=O)c2cc(Br)cc(OC(F)(F)F)c2)CC1 20.8

Dear colleague, please send me the reported IC50 for O=C(CCC1CCC(F)(F)CC1)NC1(C(=O)N[C@H](Cc2ccccc2)C(=O)C(=O)NCc2ccccn2)CC1 when you can. 12.5

Give reported IC50 value for C[C@@H](OCc1ccc(Cl)cc1)C(=O)N[C@H](Cc1ccccc1)C(=O)C(=O)NCc1ccccn1 14.3

Tell me IC50 reported for CN(C(=O)C1CCC(F)(F)CC1)C1(C(=O)N[C@H](Cc2ccccc2)C(=O)C(=O)NCc2ccccn2)CCC1 387

Determine its reported IC50: C[C@@H](NC(=O)[C@H]1CC[C@H](C#N)CC1)C(=O)N[C@H](Cc1ccccc1)C(=O)C(=O)NCc1ccccn1 46.1

Tell me IC50 reported for O=C(NCc1ccccn1)C(=O)[C@@H](Cc1ccccc1)NC(=O)C1(NC(=O)[C@H]2CC[C@@H](F)CC2)CCC1 79

Report measured IC50; entry is CN(OCc1ccccc1)C(=O)N[C@H](Cc1ccccc1)C(=O)C(=O)NCc1ccccn1 101

Report IC50, nothing else, for this compound: O=C(NCc1ccccn1)C(=O)[C@@H](Cc1ccccc1)NC(=O)[C@H]1CC(F)(F)CN1C(=O)C1(F)CCCCC1 30.7

For the compound C[C@@H](OCc1ccc(F)cc1)C(=O)N[C@H](Cc1ccccc1)C(=O)C(=O)NCc1ccc(Cl)cn1 , report IC50. 17.6

Recall and state the measured IC50 for C[C@@H](NC(=O)C1CCC(F)(F)CC1)C(=O)N[C@H](Cc1ccccc1)C(=O)C(=O)NCc1ccc(F)cn1 . 15

Write down IC50 measured for item C[C@@H](NC(=O)CC1CC(F)(F)C1)C(=O)N[C@H](Cc1ccccc1)C(=O)C(=O)NCc1cscn1 10.6

# return recorded IC50 for entry O=C(NCc1ccccn1)C(=O)[C@@H](Cc1ccccc1)NC(=O)[C@H](NC(=O)C1CCC(F)(F)CC1)C1CCCCC1 11.1

Name the recorded IC50 of the item O=C(NCc1ccccn1)C(=O)[C@@H](Cc1ccccc1)NC(=O)C1(C(=O)NCc2cnccn2)CC1 in your answer. 166

Provide one value: measured IC50 of O=C(NCc1ccccn1)C(=O)[C@@H](Cc1ccccc1)NC(=O)[C@H]1COCCN1C(=O)CC1CCC(F)(F)CC1 10.6

Determine its reported IC50: O=C(CNC(=O)C1(F)CCCCC1)N[C@H](Cc1ccccc1)C(=O)C(=O)NCc1cscn1 17.1

Indicate the recorded IC50 value for this compound: C[C@@H](NC(=O)NC1CCC(F)(F)CC1)C(=O)N[C@H](Cc1ccccc1)C(=O)C(=O)NCc1ccccn1 12.2

Provide IC50 value for the following compound: O=C(NCc1ccccn1)C(=O)[C@@H](Cc1ccccc1)NC(=O)C1(NC(=O)c2ccc(F)cc2)CCCC1 24.6

Answer with the recorded IC50 of C[C@@H](NC(=O)N1CCC(F)(F)CC1)C(=O)N[C@H](Cc1ccccc1)C(=O)C(=O)NCc1ccccn1 only. 14.8

Provide measured IC50 value, entry: O=C(Cn1cc(-c2ccccc2)cn1)N[C@H](Cc1ccccc1)C(=O)C(=O)NCc1nccs1 216

Please list IC50 recorded for the compound C[C@@H](NC(=O)COc1cccc(C#N)c1)C(=O)N[C@H](Cc1ccccc1)C(=O)C(=O)NCc1ccccn1 37.8
